For each entry below, report its pKd value.
# SYSTEM UNDER TEST: T1, human CD3 (human, UniProt P07766 23-207; P09693 23-182; P04234 22-171)
# T1 construct: whole, on cells; also called CD3 on Jurkat T cells; CD3 on primary human T cells
# ASSAY OVERVIEW: apparent KD (KDapp), flow cytometry titration on Jurkat cells
The read-out pKd is expressed as -log10 of concentration in moles per litre.

**Q:** If you can, please state the reported pKd value of F332-7C9 (antibody, mouse IgG2a, V domains shown, also called F332-7C9-2; F332-7C9 (5C7, 7D10)) VH: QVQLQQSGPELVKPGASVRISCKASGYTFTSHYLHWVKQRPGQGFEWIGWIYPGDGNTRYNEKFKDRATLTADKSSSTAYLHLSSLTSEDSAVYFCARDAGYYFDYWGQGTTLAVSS VL: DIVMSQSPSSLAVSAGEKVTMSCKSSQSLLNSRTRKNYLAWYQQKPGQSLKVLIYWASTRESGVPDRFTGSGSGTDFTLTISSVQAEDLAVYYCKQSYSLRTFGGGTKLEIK .
**A:** 9.30

**Q:** Likewise for F332-10B6 (antibody, mouse IgG2a, V domains shown, also called F332-10B6-2; F332-12B5-1) VH: QVQLQQPGAELGKPGTSVNLSCKASGYTFTDYWIHWVKQRPGQGLEWIGNINPNSGDTNYNENFKTKATLTVDRSSSTAYMQLSSLTSEDSAVYYCTRDISGQYYFDFWGQGTTLTVSS VL: DIVMSQSPSSLAVSAGEKVTMSCKSSQSLLNSRTRKNYLAWYQQKPGQSPKLLIYWASTRESGVPDRFTGSGSGTDFTLTISSVQAEDLAVYYCIQSYNLRTFGGGTKLEIK ?
**A:** 8.43

**Q:** Can you handle F332-8F7 (antibody, mouse IgG2a, V domains shown, also called F332-8F7-3) VH: QVQLQQPGAELGKPGTSVKLSCKASGYTFTSYWIHWVKQRPGQGLEWIGNINPNSGSTNYNEKFKNKATLTVDKSSSTASMQLSTLTSEDSAVYYCTRDISGQYYFDYWGQGTTLTVSS VL: DIVMSQSPSSLAVSTGGEVTMSCKSSQSLLNSRTRKNYLAWYQQKPGQSPKLLIYWASTRESGVPDRFTGSGSGTDFTLTISSVQAEDLAVYYCIQSYSLRTFGGGTKLGIK next?
**A:** 9.10

**Q:** And for F332-4D6 (antibody, mouse IgG2a, V domains shown, also called F332-4D6-2; F322-4D6) VH: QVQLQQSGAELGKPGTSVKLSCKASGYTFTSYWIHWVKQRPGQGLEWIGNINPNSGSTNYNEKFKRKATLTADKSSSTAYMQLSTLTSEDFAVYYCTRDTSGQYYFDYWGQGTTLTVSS VL: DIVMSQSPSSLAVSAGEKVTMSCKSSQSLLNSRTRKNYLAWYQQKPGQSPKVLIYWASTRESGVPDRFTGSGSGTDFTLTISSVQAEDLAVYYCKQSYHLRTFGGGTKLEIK ?
**A:** 9.30

**Q:** Same question, F332-5D4 (antibody, mouse IgG2b, V domains shown, also called F332-5D4-2; F332-5D4 (5F8)) VH: QVQLQQPGAELGKPGTSVKLSCKASGYTFTSYWMHWVKQRPGQGLEWIGNINPNGGDSNYNEKFKSKATLTVDMSSSTAYMQLSTLTSEDSAVYYCTRDISGQYYFDFWGQGTSLTVFS VL: DILMSQSPSSLAVSAGEQVTMSCKSSQSLLNSRTRKNYLAWYQQKPGQSPKLLIFWASTRKSGVPDRFTGSGSGTYFTLTINSVQTEDLAVYYCTQSYSLRTFGGGTKLEIK this time
**A:** 9.15

**Q:** Would you kindly repeat that for F332-6D7 (antibody, mouse IgG2a, V domains shown, also called F332-6D7-2; F332-6D7 (7G4)) VH: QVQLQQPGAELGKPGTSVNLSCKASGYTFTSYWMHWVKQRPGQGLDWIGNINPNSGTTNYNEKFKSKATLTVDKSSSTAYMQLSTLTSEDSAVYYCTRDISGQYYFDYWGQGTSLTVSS VL: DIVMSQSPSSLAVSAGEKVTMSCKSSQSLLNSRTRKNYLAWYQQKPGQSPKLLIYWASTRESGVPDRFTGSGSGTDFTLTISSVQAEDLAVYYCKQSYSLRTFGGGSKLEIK ?
**A:** 9.10

**Q:** Please do the same for F332-7E3 (antibody, mouse IgG2a, V domains shown, also called F332-7E3-2) VH: QVQLQQPGAELGKPGTSVKLSCKASGYTFTSYWIHWVKQRPGQGLEWIGNINPNSGSINYNEKFKSKATLTVDKSSSTAYMQLSTLTSEDFAVYYCTRDTSGQYYFDYWGQGTTLTVSS VL: DIVMSQSPSSLAVSAGEKVTMSCKSSQSLLNSRTRKNYLAWYQQKPGQSPKLLIYWASTRESGVPDRFTGSGSGTDFTLTISSVQAEDLAVYYCKQSYHLRTFGGGTKLEIK as well.
**A:** 8.89

**Q:** What would you report for F332-12F6 (antibody, mouse IgG2a, V domains shown, also called F332-12F6-2) VH: QVQLQQPGAELGKPGTSVKLSCKASGYTFTSYWIHWVKQRPGQGLEWIGNINPNSGSTNYNEKFKSKATLTVDKSSSTAYMQLSTLTSEDSAVYYCTRDISGQYYFDYWGQGTTLTVSS VL: DIVMSQSPSSLAVSAGEKVTMSCKSSQSLLNSRTRKSYLAWYQQKPGQSPKLLIYWASTRESGVPDRFTGSGSGTDFTLTISSVQAEDLAVYYCIQSYNLRTFGGGTKLEIK ?
**A:** 9.22

**Q:** Field entry: F332-13B4 (antibody, mouse IgG2a, V domains shown, also called F332-13B4-2) VH: QVQLQQSGPELVKPGASVKISCKASGYSFTNSYVHWVKQTPGQGLEWIGWIYPGSTNIKYNEKFKGKATLTADTSSSTVYMQLSSLTSEDSAVYFCARDGSYFFDYWGQGTTLTVSS VL: DIVMSQSPSSLAVSAGEKVTMTCKSSQSLLNSRTRKNYLAWYQQKPGQSPKLLIYWASTRESGVPDRFTGSGSGTDFTLTISSVQAEDLAVYYCKQSYILRTFGGGTKLEIK
**A:** 9.22

**Q:** What do we get for F332-7B7 (antibody, mouse IgG2a, V domains shown, also called F332-7B7-2) VH: QVQLQQPGTELGKPGTSVKLSCKASGYTFTNYWMHWVKQRPGQGLEWIGNINPNSGSTNYNQKFKSKATLTLDKSSSTAYMQFSTLTSEDSAVYYCTRDSSGQYYFDYWGQGTTLTVSS VL: DIVMSQSPSSLAVSAGEKVTMSCKSSQSLLNSRTRKNYLAWYQQKPGQSPKLLIYWASTRESGVPDRFTGSGSGTDFTLTISSVQAEDLAVYYCIQSFHLRTFGGGTKLEIK ?
**A:** 9.22

Data origin: patent US20250051443A1
